biological target: HLA A6802 (human); assay: 125I-probe competition, purified HLA
quantity_name: pIC50
Schema: pIC50 number; meaning minus log10 of the concentration expressed in molar units.

In the examples that follow, each entry is paired with its recorded pIC50.
# binder, pIC50
measured = [
    ("CLYLHIQSL (modifications not checked) [HPV16.E1.259]", 5.75),
    ("VAWDSVYYM (modifications not checked) [HPV18.E2.136]", 5.29),
    ("FIYIPLFVI (modifications not checked) [HPV31.E5.66]", 6.80),
]

Now for the binder whose pIC50 we want.
Quote pIC50 reported for FVYIPLFLI (modifications not checked) [HPV16.E5.66] please.
6.60
